Just for reference, patent US7166598B2 is where these values come from.

readoutLabel: melting point

> print(dat)
                                   compound   readoutlabel  experimentalvalue
1  COC[C@@H]1CN(CCN2CCN(C(=O)c3cc(C(F)(F)F)cc(C(F)(F)F)c3)[C@H](Cc3ccc(Cl)c(O)c3)C2)CCO1.Cl.Cl  melting point      160 to 169 °C
2  COC[C@@H]1CN(CCN2CCN(C(=O)c3cc(Cl)cc(C(F)(F)F)c3)[C@H](Cc3ccc(Cl)cc3)C2)CCO1.Cl.Cl  melting point      148 to 153 °C
3  COc1cc(C(=O)N2CCN(CCN3CCc4ncccc4C3)C[C@H]2Cc2ccc(C(F)(F)F)c(OC)c2)cc(C(F)(F)F)c1.Cl.Cl.Cl  melting point      190 to 200 °C
4  Cl.Cl.O=C(c1cc(C(F)(F)F)cc(C(F)(F)F)c1)N1CCN(CCN2CCC(F)(F)CC2)C[C@H]1Cc1ccc(F)c(O)c1  melting point      190 to 200 °C
5  COC[C@@H]1CN(CCN2CCN(C(=O)c3cc(C(F)(F)F)cc(C(F)(F)F)c3)C(Cc3ccc(C)c(O)c3)C2)[C@@H](C)CO1.Cl.Cl (stereo partly shown)  melting point      214 to 218 °C
6  CC1(C)COCCN1CC#CCN1CCN(C(=O)c2cc(C(F)(F)F)cc(C(F)(F)F)c2)[C@H](Cc2ccc(F)cc2)C1.Cl.Cl  melting point   76.5 to 130.6 °C
7  COc1cc(C[C@@H]2CN(CCN3CCc4ncccc4C3)CCN2C(=O)c2cc(C(F)(F)F)cc(C(F)(F)F)c2)ccc1C(F)(F)F.Cl.Cl.Cl  melting point      195 to 200 °C

----------
Consider the following compounds and their measured melting point readings.
readoutLabel: melting point

> print(dat)
                                entrysmiles  experimentalvalue
1  COc1cc(C(=O)N2CCN(CCN3C[C@@H](C)O[C@@H](C)C3)C[C@H]2Cc2ccc(Cl)cc2)cc(C(F)(F)F)c1.Cl.Cl       90 to 120 °C
2  COC[C@@H]1CN(CCN2CCN(C(=O)c3cc(C(F)(F)F)cc(C(F)(F)F)c3)[C@H](Cc3ccc(OC)cc3)C2)CCO1.Cl.Cl      146 to 149 °C
3  C[C@@H]1CN(CCN2CCN(C(=O)c3cc(C(F)(F)F)cc(C(F)(F)F)c3)[C@H](Cc3ccc4ccccc4c3)C2)C[C@H](C)O1.Cl.Cl      168 to 195 °C
4  Cl.Cl.Cl.Cl.O=C(c1cc(-c2ccncc2)cc(C(F)(F)F)c1)N1CCN(CCN2CCc3ncccc3C2)C[C@H]1Cc1ccc(Cl)cc1      206 to 217 °C

----------
Consider the following molecules and their measured melting point readings.
readoutLabel: melting point

> print(dat)
                                entrysmiles   readoutlabel  experimentalvalue
1  COC[C@@H]1CN(CCN2CCN(C(=O)c3cc(F)cc(C(F)(F)F)c3)[C@H](Cc3ccc(Cl)c(O)c3)C2)CCO1.Cl.Cl  melting point      176 to 178 °C
2  CNc1cc(C(=O)N2CCN(CCN3CCO[C@H](COC)C3)C[C@H]2Cc2ccc(C)c(O)c2)cc(C(F)(F)F)c1.Cl.Cl  melting point      159 to 170 °C
3  CSc1cc(C(=O)N2CCN(CCN3CCc4ncccc4C3)C[C@H]2Cc2ccc(Cl)cc2)cc(C(F)(F)F)c1.Cl.Cl.Cl  melting point      182 to 195 °C
4  COC[C@@H]1CN(CCN2CCN(C(=O)c3cc(C(F)(F)F)cc(C(F)(F)F)c3)[C@H](Cc3ccc4ccccc4c3)C2)CCO1.Cl.Cl  melting point      145 to 148 °C
